- ASSAY DETAILS: cAMP Responsive Elements (CRE) small molecule antagonists, cell-based qHTS assay: qHTS cell viability counter screen (AID 2060913); note: % is set by controls: 0 for no effect and ±100 for the full control effect; nearly all actives have a fitted effect of over 40% in size
- CONDITION: CRE-bla HEK293T viability, CellTiter-Glo luminescence, 5 h; series mostly up to 92.4 µM
Records with an inconclusive call do not appear. Active and inactive are the calls of the source. Calls come from the whole dose curve; as a rule, active = well fitted cell-killing curve with a large enough effect in the repeat runs; inconclusive = weak or mixed curves, or effect the other way; inactive = flat fitted curve, though single readings scatter.
READOUT NAME: viability change, negative = cytotoxic

Field: example entries. Status: answers known.
- CCN(CC)CCNC(=O)c1c(C)[nH]c(/C=C2\C(=O)Nc3ccc(F)cc32)c1C: inactive
- CCCCCCCC(=O)OCC(COC(=O)CCCCCCC)OC(=O)CCCCCCC: inactive
- CCn1cc(C(=O)O)c(=O)c2cc(F)c(N3CCNC(C)C3)c(F)c21 (stereo not drawn): inactive
- C[C@]12CCC(=O)C=C1CC[C@@H]1[C@@H]2CC[C@@]2(C)[C@H]1CC[C@]2(O)C(=O)CO: inactive
- CCCCNc1ccc(C(=O)OCCN(CC)CC)cc1: inactive
- NC(Cc1ccc(Cl)cc1)C(=O)O (stereo not drawn): 9.93% [at 0.349 µM] (inactive)
- C[C@@H]1C[C@H]2[C@@H]3CCC4=CC(=O)C=C[C@]4(C)[C@@]3(F)[C@@H](O)C[C@]2(C)[C@@]1(O)C(=O)COP(=O)(O)O: inactive
- CCCCCCCC/C=C\CCCCCCCC(N)=O: inactive
- O=S(=O)(O)c1ccccc1O: inactive
- C=CC(C)(C)C: inactive

stdin: What value of viability change, negative = cytotoxic has been reported for the following molecule? CCNC(=O)NCCCOc1cccc(CN2CCCCC2)c1
stdout: inactive

stdin: Same read-out for Nc1c[n+](N2CCOCC2)no1 ?
stdout: inactive

---

- ASSAY DETAILS: cAMP Responsive Elements (CRE) small molecule agonists, cell-based qHTS assay: qHTS cell viability counter screen (AID 2060914);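 note: viability read after 3 h of compound exposure; % is set by controls: 0 for no effect and ±100 for the full control effect; nearly all actives have a fitted effect of over 50% in size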
- CONDITION: CRE-bla HEK293T viability, CellTiter-Glo luminescence, 5 h; series mostly up to 92.4 µM
Inconclusive results are not listed. Activity calls are given as the source filed them. Calls come from the whole dose curve; as a rule, active = well fitted cell-killing curve with a large enough effect in the repeat runs; inconclusive = weak or mixed curves, or effect the other way; inactive = flat fitted curve, though single readings scatter.
READOUT NAME: activity change, negative = cytotoxicity

• Cc1nnc(C(=O)NC(C)(C)c2nc(C(=O)NCc3ccc(F)cc3)c(O)c(=O)n2C)o1 = inactive
• COc1ccc(OC)c(OC)c1 = inactive
• C[Si](C)(C)N[Si](C)(C)C = inactive
• CC1COC(=O)O1 (configuration not stated) = inactive
• N#CCc1ccc(Cl)cc1Cl = inactive
• CCC(Cl)CCC(Cl)C(Cl)CC(Cl)C(Cl)C(Cl)CCl (configuration not stated) = inactive

stdin: What value of activity change, negative = cytotoxicity has been reported for the following molecule? CCC(=O)O[C@@H]1C[C@H]2CC[C@]1(C)C2(C)C
stdout: inactive

---

- ASSAY DETAILS: cAMP Responsive Elements (CRE) small molecule antagonists, cell-based qHTS assay: qHTS cell viability counter screen (AID 2060913); note: % is set by controls: 0 for no effect and ±100 for the full control effect; nearly all actives have a fitted effect of over 40% in size
- CONDITION: CRE-bla HEK293T viability, CellTiter-Glo luminescence, 5 h; series mostly up to 92.4 µM
Records with an inconclusive call do not appear. Active and inactive are the calls of the source. The call rests on the fitted dose curve; in most records, active means well fitted cell-killing curve with a large enough effect in the repeat runs; inconclusive means weak or mixed curves, or effect the other way; inactive means flat fitted curve, though single readings scatter.
READOUT NAME: viability change, negative = cytotoxic

Field: example entries. Status: answers known.
• O=[N+]([O-])c1cccc(S(=O)(=O)NCCNS(=O)(=O)c2cccc([N+](=O)[O-])c2)c1 = inactive
• COc1cccc(OC)c1O = inactive
• CN(C)Cc1cc(C(C)(C)C)c(O)c(C(C)(C)C)c1 = inactive
• CCN(CCO)c1cccc(C)c1 = inactive

stdin: What value of viability change, negative = cytotoxic has been reported for the following molecule? CC1CCCC1
stdout: inactive

stdin: Same read-out for C#CC(O)C(CC)CCCC (configuration not stated) ?
stdout: inactive

stdin: Same read-out for CCC1CCC(CCC(=O)O)C1 (configuration not stated) ?
stdout: inactive

These data points were gathered from PubChem BioAssay (Tox21).
